Assignment: determine reported TGI for the given compounds.
Test system: U251 CNS
Experiment: NCI tumour cell line growth inhibition, 48 h
Your answer is read as µM, so omit the unit and give the number.

State its TGI: CC(=O)c1sc2c(c1OC(=O)c1ccccc1)c(=O)n(-c1ccccc1)c(=S)n2-c1ccccc1
23.7

Please report the measured TGI for CC(C)C1CCC(=O)CC1CCCCC1CC(=O)CC1O[Si](C)(C)C(C)(C)C (stereo not given)
5.84

* * *

System: SK-MEL-5 melanoma
Experiment: NCI tumour cell line growth inhibition, 48 h
Where a SMILES comes first, the peptide text is derived from it. Bridges are numbered along the chain shown (N, C = ends).
measured.endpoint: TGI

Item O=C(O)C1C2C=CC(O2)C1C(=O)NCc1ccncc1 (stereo not given) : provide TGI
> 100 µM

Fill in reported TGI for this entry: CCc1nc(N)nc(N)c1-c1ccc(N(C)Cc2ccccc2)c([N+](=O)[O-])c1
4.32 µM

Query TGI for CC(C)c1ccc(C(O)(C(=O)O)c2ccc(C(C)C)cc2)cc1
> 100 µM

Hello, please tell me recorded TGI for this one: Cc1nnc(N)nc1C/C=C/C(C)Sc1ccc(Cl)cc1 (stereo not given)
22.9 µM

Report measured TGI; entry is O=C(C(=O)c1cccnc1)c1cccnc1
> 100 µM

Answer with the recorded TGI for the molecule listed here: CCCCCCCCCCCCSC1=CC(=O)C=CC1=O
14.3 µM

Indicate its recorded TGI; the molecule in question is COC1/C=C/OC2(C)Oc3c(C)c(O)c4c(O)c(c(/C=N/N(c5ccccc5)c5ccccc5)c(O)c4c3C2=O)NC(=O)C(C)=C/C=C/C(C)C(O)C(C)C(O)C(C)C(OC(C)=O)C1C (stereo not given)
6.75 µM

Please give measured TGI of the following entry: Cc1cnc(-c2ccc(-c3ccc(NC(=O)Nc4cccc(C(F)(F)F)c4)cc3F)c3c2C(=O)NC3)[nH]1
> 65.6 µM

Complete the entry with TGI for COc1cc(Cn2c3ccccc3c3cc(C)cc(OC)c32)cc2c1[nH]c1ccccc12
> 25 µM

Annotate the molecule CCCCCCCCCCCCCC(=O)NO with its measured TGI.
26.5 µM

For the molecule CCCn1cc(/C=N\N=C2\C(=O)Nc3ccc(C)cc32)c2ccccc21 , report TGI.
13.5 µM

Look up and report measured TGI for this entry: O=C(CCN1CCCC1)Nc1ccc2c(Nc3ccc(Br)cc3)c3ccccc3nc2c1
2.92 µM

Look up and state reported TGI for CCOC(=O)C1=C(C)C2C3C(=O)OC(=O)C3C1(C)C1C(=O)OC(=O)C21 (stereo not given)
> 100 µM

// Input: O=C(/C=C/c1ccc(Cl)cc1)c1nc2ccccc2[nH]1 . Output its TGI only.
> 100 µM

Retrieve TGI measured for CC1(C)C2=CCCC(=O)[C@@]2(C)CC[C@@H]1O and print it.
> 100 µM

Query TGI for N#Cc1c2c(c(Nc3cccc(C(F)(F)F)c3)n3c1nc1ccccc13)CCCC2
> 100 µM

Supply recorded TGI for O=C(OCC1CC(C2(O)CCCCC2)C(=O)O1)c1ccccc1 (stereo not given) here.
> 100 µM

Given the molecule CCCCCCCCC1C(C)c2c([nH]c3ccccc23)C2C(=O)N(c3ccccc3)C(=O)C21 (stereo not given) , write its reported TGI.
31.7 µM

Provide TGI value for the following molecule: Oc1ccccc1/C=N\Nc1ccccc1
19.8 µM

Supply TGI value. Item: c1ccc(N2CCN(CCCN3CCc4c([nH]c5ccccc45)C3c3cccnc3)CC2)cc1 (stereo not given)
> 100 µM

Assign TGI to the following record: CC(/C=C1\CCC(CN(C)C)C1=O)c1cccc(Br)c1 (stereo not given)
18.8 µM

Give TGI for the following molecule: CCCCCCC(O)C(=O)OC1C2C(CC1(C)C)C(O)C13OC1C(O)C1(CO1)[C@@]23C (stereo not given in full)
40.9 µM

Kindly indicate its recorded TGI. Item: C[C@@]12C[C@@H](c3ccccc3O1)N1CCCSC1=N2
> 100 µM

Please report TGI for the following molecule: CC(C)OP(=O)(OC(C)C)/C(=N/Nc1ccc([N+](=O)[O-])cc1)NNC(=O)c1ccccc1
32 µM

Give the reported TGI for this molecule. CCOP(=O)(OCC)C(NC(c1ccccc1)c1ccccc1)c1ccsc1 (stereo not given)
35.1 µM

State its TGI for this molecule: C/C(CC(=O)Nc1cccc([N+](=O)[O-])c1)=N/NC(N)=S
> 100 µM

// fetch TGI given entry O=C1C(c2ccccc2)=[N+]([O-])c2cc([N+](=O)[O-])ccc21
39.2 µM

Check the records and state TGI for CCCCNP1(NCCCC)=NP(NCCCC)(NCCCC)=NP(NCCCC)(NCCCC)=NP(NCCCC)(NCCCC)=N1
1.89 µM

// fetch TGI given entry CCC(C)C1NC(=O)C(CC(C)C)NC(=O)C(C(C)C)NC(=O)C2CSSCC(NC1=O)C(=O)N2 (stereo not given) (cyclo(CCVLI); disulfide 1-2; configuration not given here)
0.293 µM

Indicate the recorded TGI value for this molecule: Cc1nccc2c3ccc(OCc4cn(-c5ccc(Br)cc5)nn4)cc3n(CCCc3ccccc3)c12
> 100 µM

Assign TGI to the following record: NC1C2C=CC(C2)C1C(=O)O (stereo not given)
> 100 µM

Provide measured TGI value, entry: O=C(O)CC(S)C(=O)O.[Li+].[Sb] (stereo not given)
29 µM

Quote TGI reported for CCCc1cn2c(/C=N/N=C(N)N)c(-c3ccc([N+](=O)[O-])cc3)nc2s1 please.
54 µM

Annotate the molecule CN(C)c1ccc(/C=N/n2c(CCCCc3n[nH]c(=S)n3/N=C/c3ccc(N(C)C)cc3)n[nH]c2=S)cc1 with its measured TGI.
> 100 µM

For the molecule Cc1ccc2c(c1)C(=O)/C(=C/c1cccc(OCC(=O)c3ccc(Cl)cc3)c1)CS2 , give its measured TGI value.
19.6 µM

Dear colleague, please send me the reported TGI for CN(CCc1ccccn1)/[N+]([O-])=N/O (tested in a mixture with another compound) when you can.
> 100 µM

Please give the documented TGI of CC1=NC(=O)CNN1C1=NNC2(C(=O)N1)c1ccccc1-c1ccccc12
> 100 µM

Check the records and state TGI for COc1cccc2c1C(=O)c1c(O)c3c(c(O)c1C2=O)CC(O)(C(C)=O)CC3OC1OC(COC(C)=O)C(OC(C)=O)C(OC(C)=O)C1OC(C)=O (stereo not given)
> 100 µM

State, in one line, measured TGI of CSC(=NC(=O)c1ccccc1)SCCSC(=NC(=O)c1ccccc1)SC
> 100 µM

Provide only the value of recorded TGI for Fc1ccc(-c2c(-c3ccncc3)[nH]c3cccnc23)cc1
> 25 µM
